Item-by-item account of relative viability
# System: NCI-H2347
# protocol.notes: relative viability (nuclei count vs DMSO), 5 days (fraction); higher = more cells survive
# test.settings: first compound 0.01581 µM
recorded.metric: relative viability

>  <compound>
Nc1ccn([C@@H]2O[C@H](CO)[C@@H](O)[C@@H]2O)c(=O)n1 [Cytarabine] + C[C@]1(O)C[C@@H](c2nc(-c3ccc4ccc(-c5ccccc5)nc4c3)c3c(N)nccn32)C1 [Linsitinib] (partner 1 µM)

>  <recorded.metric>
relative viability

>  <measured.result>
0.932

$$$$
>  <compound>
Nc1ccn([C@@H]2O[C@H](CO)[C@@H](O)[C@@H]2O)c(=O)n1 [Cytarabine] + CS(=O)(=O)N1CCN(Cc2cc3nc(-c4cccc5[nH]ncc45)nc(N4CCOCC4)c3s2)CC1 [Pictilisib] (partner 1 µM)

>  <recorded.metric>
relative viability

>  <measured.result>
0.811

$$$$
>  <compound>
COc1cc2nccc(Oc3ccc(NC(=O)Nc4cc(C)on4)c(Cl)c3)c2cc1OC [Tivozanib] + O=C(CCCCCCC(=O)Nc1ccccc1)NO [Vorinostat] (partner 1 µM)

>  <recorded.metric>
relative viability

>  <measured.result>
0.577

$$$$
>  <compound>
Nc1ccn([C@@H]2O[C@H](CO)[C@@H](O)[C@@H]2O)c(=O)n1 [Cytarabine] + NC(=O)Nc1cc(-c2cccc(F)c2)sc1C(=O)N[C@H]1CCCNC1 [AZD7762] (partner 0.2 µM)

>  <recorded.metric>
relative viability

>  <measured.result>
0.525

$$$$
>  <compound>
COc1cc2nccc(Oc3ccc(NC(=O)Nc4cc(C)on4)c(Cl)c3)c2cc1OC [Tivozanib] + COc1cccc2cc(-c3nc([C@H]4CC[C@H](C(=O)O)CC4)n4ncnc(N)c34)[nH]c12 [OSI-027] (partner 0.5 µM)

>  <recorded.metric>
relative viability

>  <measured.result>
0.373

$$$$

====

Quick reference for relative viability among some compounds
# Tested on: EKVX
# protocol.notes: relative viability (nuclei count vs DMSO), 5 days (fraction); higher = more cells survive
# test.settings: first compound 0.8 µM
recorded.metric: relative viability

>  <compound>
Cc1cnc(-c2cnc(NCCNc3ccc(C#N)cn3)nc2-c2ccc(Cl)cc2Cl)[nH]1 + O=C(CCCCCCC(=O)Nc1ccccc1)NO [Vorinostat] (partner 1 µM)

>  <measured.result>
0.658

$$$$
>  <compound>
Cc1cnc(-c2cnc(NCCNc3ccc(C#N)cn3)nc2-c2ccc(Cl)cc2Cl)[nH]1 + Cc1nc(NC(=O)N2CCC[C@H]2C(N)=O)sc1-c1ccnc(C(C)(C)C(F)(F)F)c1 [Alpelisib] (partner 2 µM)

>  <measured.result>
0.839

$$$$
>  <compound>
O=c1[nH]c2ccccc2n1C1CCN(CCCC(c2ccc(F)cc2)c2ccc(F)cc2)CC1 [Pimozide] + O=C(CCCCCCC(=O)Nc1ccccc1)NO [Vorinostat] (partner 1 µM)

>  <measured.result>
0.601

$$$$
>  <compound>
Cc1cnc(-c2cnc(NCCNc3ccc(C#N)cn3)nc2-c2ccc(Cl)cc2Cl)[nH]1 + COc1cccc2cc(-c3nc([C@H]4CC[C@H](C(=O)O)CC4)n4ncnc(N)c34)[nH]c12 [OSI-027] (partner 0.5 µM)

>  <measured.result>
0.589

$$$$
>  <compound>
O=c1[nH]c2ccccc2n1C1CCN(CCCC(c2ccc(F)cc2)c2ccc(F)cc2)CC1 [Pimozide] + CCNC(=O)c1noc(-c2cc(C(C)C)c(O)cc2O)c1-c1ccc(CN2CCOCC2)cc1 [Luminespib] (partner 0.01 µM)

>  <measured.result>
0.807

$$$$
>  <compound>
O=c1[nH]c2ccccc2n1C1CCN(CCCC(c2ccc(F)cc2)c2ccc(F)cc2)CC1 [Pimozide] + CC(=O)c1c(C)c2cnc(Nc3ccc(N4CCNCC4)cn3)nc2n(C2CCCC2)c1=O [Palbociclib] (partner 0.5 µM)

>  <measured.result>
0.343

$$$$
>  <compound>
Cc1cnc(-c2cnc(NCCNc3ccc(C#N)cn3)nc2-c2ccc(Cl)cc2Cl)[nH]1 + COc1cc2c(Oc3ccc(NC(=O)C4(C(=O)Nc5ccc(F)cc5)CC4)cc3F)ccnc2cc1OCCCN1CCOCC1 [Foretinib] (partner 0.25 µM)

>  <measured.result>
0.626

$$$$
>  <compound>
O=c1[nH]c2ccccc2n1C1CCN(CCCC(c2ccc(F)cc2)c2ccc(F)cc2)CC1 [Pimozide] + CC(C)C[C@H](NC(=O)[C@H](Cc1ccccc1)NC(=O)c1cnccn1)B(O)O [Bortezomib] (partner 0.002 µM)

>  <measured.result>
0.992

$$$$
>  <compound>
O=c1[nH]c2ccccc2n1C1CCN(CCCC(c2ccc(F)cc2)c2ccc(F)cc2)CC1 [Pimozide] + Nc1nc2[nH]cc(CCc3ccc(C(=O)N[C@@H](CCC(=O)O)C(=O)O)cc3)c2c(=O)[nH]1 [Pemetrexed] (partner 0.2 µM)

>  <measured.result>
0.362

$$$$
